I'd appreciate it if you could supply pEC50 values for the items below.
test system: secreted mouse PGRN; experiment: progranulin induction cellular assay (PGRN assay, ELISA-based readout); conditions: Mus musculus, progranulin secreted into cell culture medium, cells named in method: mouse primary microglia, primary cortical neurons, BV-2
The value called pEC50 is obtained by taking minus log10 of the concentration in mol/L.

Any idea what pEC50 came out for Fc1ccc([C@H]2c3ccccc3CCN2C2=NC[C@]3(CCN(CCC(F)(F)F)C3)O2)cc1 [Compound 3173] on secreted mouse PGRN?
5.98

Any idea what pEC50 came out for CN1CC[C@@H](F)[C@]2(CN=C(N3CCc4ccccc4[C@@H]3c3ccc(F)cc3)O2)C1 (single isomer, unassigned) [Compound 3045] on secreted mouse PGRN?
5.35

Any idea what pEC50 came out for CN1CCC(F)[C@]2(CN=C(N3CCc4ccccc4[C@@H]3c3ccc(F)cc3)O2)C1 (single isomer, unassigned) [Compound 3046] on secreted mouse PGRN?
5.47

Any idea what pEC50 came out for N[C@H]1CC[C@@]2(COC(N3CCc4ccccc4[C@@H]3c3ccc(F)cc3)=N2)C1 [Compound 3084] on secreted mouse PGRN?
6.69

Any idea what pEC50 came out for Fc1ccc([C@H]2c3ccccc3CCN2C2=NC[C@@H]([C@@H]3CCNC3)O2)cc1 (single isomer, unassigned) [Compound 3066] on secreted mouse PGRN?
7.26

Any idea what pEC50 came out for Fc1ccc([C@H]2c3ccccc3CCN2C2=N[C@@H](C3CCNCC3)CO2)cc1 (single isomer, unassigned) [Compound 3133] on secreted mouse PGRN?
6.21

Any idea what pEC50 came out for Fc1ccc([C@H]2c3ccccc3CCN2C2=NC[C@]3(CN4CCC3CC4)O2)cc1F (stereo in doubt) [Compound 3025] on secreted mouse PGRN?
5.39

Any idea what pEC50 came out for O[C@H]1CNC[C@@]12CN=C(N1CCc3ccccc3[C@@H]1c1ccc(F)cc1)O2 [Compound 3178] on secreted mouse PGRN?
6.60

Any idea what pEC50 came out for NC[C@H]1C[C@@]2(CN=C(N3CCc4ccccc4[C@@H]3c3ccc(F)cc3)O2)C1 (single isomer, unassigned) [Compound 3160] on secreted mouse PGRN?
6.00

Any idea what pEC50 came out for N[C@@H]1CC[C@@]2(CN=C(N3CCc4ccccc4[C@@H]3c3ccc(F)cc3)O2)C1 (single isomer, unassigned) [Compound 3081] on secreted mouse PGRN?
6.92

Any idea what pEC50 came out for c1ccc([C@H]2c3ccccc3CCN2C2=NC[C@]3(CN4CCC3CC4)O2)cc1 (single isomer, unassigned) [Compound 3040] on secreted mouse PGRN?
5.95

Any idea what pEC50 came out for Fc1ccc([C@H]2c3ccccc3CCN2C2=NC[C@]3(CCCNC3)O2)cc1 [Compound 3052] on secreted mouse PGRN?
6.36

Any idea what pEC50 came out for CN1CCCC2(COC(N3CCc4ccccc4[C@@H]3c3ccc(F)cc3)=N2)C1 (some centres unmarked) [Compound 3055] on secreted mouse PGRN?
5.75

====

test system: secreted mouse PGRN; assay: progranulin induction cellular assay (PGRN assay, ELISA-based readout); conditions: Mus musculus, progranulin secreted into cell culture medium, cells named in method: mouse primary microglia, primary cortical neurons, BV-2
Entries whose EC50 is below 800 nM take T; entries at or above 800 nM take F.

EC50 strictly < 800 nM for this molecule? c1ccc([C@H]2c3ccccc3CCN2C2=NC[C@]3(CCNC3)O2)cc1 (single isomer, unassigned)
T

EC50 strictly < 800 nM for this molecule? Fc1ccc([C@H]2c3ccccc3CCN2C2=NC[C@@H](C3(F)CNC3)O2)cc1 (single isomer, unassigned)
T

EC50 strictly < 800 nM for this molecule? `Fc1ccc([C@H]2c3ccccc3CCN2C2=NC[C@]3(CCN(CC(F)(F)F)C3)O2)cc1`
F

EC50 strictly < 800 nM for this molecule? `Fc1ccc([C@H]2c3ccccc3CCN2C2=NC[C@@]3(CCNC3)O2)cc1`
T

EC50 strictly < 800 nM for this molecule? Fc1ccc([C@H]2c3ccccc3CCN2C2=NC[C@@]3(CNC[C@@H]3F)O2)cc1 (single isomer, unassigned)
T

EC50 strictly < 800 nM for this molecule? CN1CCC[C@@]2(CN=C(N3CCc4ccccc4[C@@H]3c3ccc(F)c(F)c3)O2)C1 (stereo in doubt)
F

EC50 strictly < 800 nM for this molecule? N[C@H]1CCC[C@]12CN=C(N1CCc3ccccc3[C@@H]1c1ccc(F)cc1)O2 (single isomer, unassigned)
T

EC50 strictly < 800 nM for this molecule? Fc1ccc([C@H]2c3ccccc3CCN2C2=N[C@@H](C3(F)CNC3)CO2)cc1 (single isomer, unassigned)
T

EC50 strictly < 800 nM for this molecule? Fc1cc(F)cc([C@H]2c3ccccc3CCN2C2=NC[C@@]3(CN4CCC3CC4)O2)c1 (racemic)
F

EC50 strictly < 800 nM for this molecule? CN1CCC[C@H]([C@@H]2CN=C(N3CCc4ccccc4[C@@H]3c3ccc(F)cc3)O2)C1 (single isomer, unassigned)
T

EC50 strictly < 800 nM for this molecule? CN1CCC[C@@H]([C@H]2CN=C(N3CCc4ccccc4[C@@H]3c3ccc(F)cc3)O2)C1 (single isomer, unassigned)
F

EC50 strictly < 800 nM for this molecule? `O[C@H]1CNC[C@]12CN=C(N1CCc3ccccc3[C@@H]1c1ccc(F)cc1)O2`
T

EC50 strictly < 800 nM for this molecule? CN1CCC[C@@]2(CN=C(N3CCc4ccccc4[C@H]3c3ccc(F)c(F)c3)O2)C1 (stereo in doubt)
F

EC50 strictly < 800 nM for this molecule? N[C@H]1CC[C@]2(CN=C(N3CCc4ccccc4[C@@H]3c3ccc(F)cc3)O2)C1 (single isomer, unassigned)
T

EC50 strictly < 800 nM for this molecule? `Fc1ccc([C@H]2c3ccccc3CCN2C2=NC[C@@]3(CCCNC3)O2)cc1`
F

EC50 strictly < 800 nM for this molecule? CN(C)[C@H]1C[C@@]2(CN=C(N3CCc4ccccc4[C@@H]3c3ccc(F)cc3)O2)C1 (single isomer, unassigned)
T

EC50 strictly < 800 nM for this molecule? Fc1ccc([C@H]2c3ccccc3CCN2C2=NCC3(CNCCC3F)O2)cc1 (some centres unmarked)
T

EC50 strictly < 800 nM for this molecule? `OCCN1CC[C@@]2(CN=C(N3CCc4ccccc4[C@@H]3c3ccc(F)cc3)O2)C1`
T

EC50 strictly < 800 nM for this molecule? CN(C)[C@@H]1CC[C@]2(CN=C(N3CCc4ccccc4[C@@H]3c3ccc(F)cc3)O2)C1 (single isomer, unassigned)
T

EC50 strictly < 800 nM for this molecule? NC[C@H]1C[C@]2(CN=C(N3CCc4ccccc4[C@@H]3c3ccc(F)cc3)O2)C1 (single isomer, unassigned)
T

====

system: secreted mouse PGRN; assay: progranulin induction cellular assay (PGRN assay, ELISA-based readout); details: Mus musculus, progranulin secreted into cell culture medium, cells named in method: mouse primary microglia, primary cortical neurons, BV-2
measured metric: EC50
The answer consists of two parts: a number and, after it, its unit.

Recorded EC50 of CN1CCC[C@@]2(CN=C(N3CCc4ccccc4[C@@H]3c3cccc(F)c3)O2)C1 (single isomer, unassigned) , please.
370 nM

Recorded EC50 of `O=C1N[C@@]2(CCCNC2)N=C1N1CCc2ccccc2[C@@H]1c1ccc(F)cc1` , please.
85.3 nM

Recorded EC50 of Fc1ccc([C@H]2c3ccccc3CCN2C2=NO[C@@]3(CN4CCC3(F)CC4)O2)cc1 (single isomer, unassigned) , please.
450 nM

Recorded EC50 of Fc1ccc([C@H]2c3ccccc3CCN2C2=NC[C@@H](C3CNC3)O2)cc1 (single isomer, unassigned) , please.
96.6 nM

====

I'd appreciate it if you could supply EC50 values for the items below.
test system: secreted mouse PGRN; assay: progranulin induction cellular assay (PGRN assay, ELISA-based readout); conditions: Mus musculus, progranulin secreted into cell culture medium, cells named in method: mouse primary microglia, primary cortical neurons, BV-2
Express your answer in µM, writing the number without its unit.

Recorded EC50 of `Fc1ccc([C@H]2c3ccccc3CCN2C2=NC[C@@H](C34CCN(CC3)CC4)O2)cc1` , please.
0.11

Recorded EC50 of Fc1ccc([C@H]2c3ccccc3CCN2C2=N[C@H](C3CCNCC3)CO2)cc1 (single isomer, unassigned) , please.
0.312

Recorded EC50 of Fc1cc(F)cc([C@H]2c3ccccc3CCN2C2=NC[C@]3(CN4CCC3CC4)O2)c1 (stereo in doubt) , please.
1

Recorded EC50 of Fc1ccc([C@@H]2c3ccccc3CCN2C2=NC[C@]3(CN4CCC3CC4)O2)cc1F (stereo in doubt) , please.
2.08

Recorded EC50 of CN1CCC[C@]2(CN=C(N3CCc4ccccc4[C@@H]3c3ccc(F)cc3F)O2)C1 (single isomer, unassigned) , please.
1.68

Recorded EC50 of Fc1ccc([C@H]2c3ccccc3CCN2C2=N[C@H](C3(F)CNC3)CO2)cc1 (single isomer, unassigned) , please.
0.0777

Recorded EC50 of CN1CCC[C@]2(CN=C(N3CCc4ccccc4[C@@H]3c3ccc(F)c(F)c3)O2)C1 (stereo in doubt) , please.
4.02

Recorded EC50 of CN1CCC[C@@]2(CN=C(N3CCc4ccccc4[C@@H]3c3cc(F)cc(F)c3)O2)C1 (single isomer, unassigned) , please.
7.64

Recorded EC50 of CN1CCC[C@]2(CN=C(N3CCc4ccccc4[C@H]3c3ccc(F)c(F)c3)O2)C1 (stereo in doubt) , please.
4.31

Recorded EC50 of `Fc1ccc([C@H]2c3ccccc3CCN2C2=NC[C@@]3(CCN(CC(F)(F)F)C3)O2)cc1` , please.
1.52

Recorded EC50 of `N[C@H]1C[C@@]2(COC(N3CCc4ccccc4[C@@H]3c3ccc(F)cc3)=N2)C1` , please.
0.639

Recorded EC50 of `OCCCN1CC[C@@]2(CN=C(N3CCc4ccccc4[C@@H]3c3ccc(F)cc3)O2)C1` , please.
0.318

Recorded EC50 of Fc1ccc([C@H]2c3ccccc3CCN2C2=N[C@]3(CO2)CN2CCC3CC2)cc1 (single isomer, unassigned) [Compound 3057A] , please.
0.231

Recorded EC50 of Fc1ccc([C@H]2c3ccccc3CCN2C2=N[C@@]3(CO2)CN2CCC3CC2)cc1 (single isomer, unassigned) [Compound 3057B] , please.
0.126

Recorded EC50 of N[C@@H]1CC[C@]2(CN=C(N3CCc4ccccc4[C@@H]3c3ccc(F)cc3)O2)C1 (single isomer, unassigned) , please.
0.236

Recorded EC50 of Fc1ccc([C@H]2c3ccccc3CCN2C2=N[C@H]([C@H]3CCNC3)CO2)cc1 (single isomer, unassigned) , please.
0.33

Recorded EC50 of c1ccc([C@H]2c3ccccc3CCN2C2=NC[C@@]3(CCNC3)O2)cc1 (single isomer, unassigned) , please.
0.118

Recorded EC50 of CN1CCC[C@@]2(CN=C(N3CCc4ccccc4[C@@H]3c3ccc(F)cc3F)O2)C1 (single isomer, unassigned) , please.
0.88

Recorded EC50 of CN1CCC[C@@]2(CN=C(N3CCc4ccccc4[C@H]3c3cccc(F)c3F)O2)C1 (stereo in doubt) , please.
5

Recorded EC50 of Fc1ccc([C@H]2c3ccccc3CCN2C2=NCC(C3CNC3)O2)cc1 (single isomer, unassigned) , please.
0.109

Recorded EC50 of Fc1ccc([C@H]2c3ccccc3CCN2C2=NC[C@]3(CN4CCC3(F)CC4)O2)cc1 (single isomer, unassigned) , please.
2.38

Recorded EC50 of Fc1cccc([C@H]2c3ccccc3CCN2C2=NC[C@@]3(CN4CCC3CC4)O2)c1 (stereo in doubt) , please.
9.98

Recorded EC50 of CN(C)[C@@H]1CC[C@@]2(CN=C(N3CCc4ccccc4[C@@H]3c3ccc(F)cc3)O2)C1 (single isomer, unassigned) , please.
0.237

Recorded EC50 of Fc1ccc([C@@H]2c3ccccc3CCN2C2=NC[C@@]3(CN4CCC3CC4)O2)cc1F (stereo in doubt) , please.
0.31

Recorded EC50 of Fc1ccc([C@H]2c3ccccc3CCN2C2=NC[C@@H]([C@H]3CCCNC3)O2)cc1 (single isomer, unassigned) , please.
0.475
